Subject Of Test: T1, human alpha CGRP (SEQ ID NO: 80) (human, not fully specified)
T1 construct: also called human αCGRP; hαCGRP
T1 peptide: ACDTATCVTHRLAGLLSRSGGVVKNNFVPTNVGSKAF
Experimental Details: SPR as in Example 5
Readout Name: Kd (nM)
Numbers only, in nM.

Binder	Kd (nM)
cysteine-free lipocalin mutein SEQ ID NO: 37 (designed binder, biotinylated by NHS chemistry for capture in SPR) QDSTSDLIPAPPLSKVPLQQNFQDNQFQGKWYVVGWAGNTLLREDKDPIKMQAMIYELKEDKSYNVTWVYFADKKNNYHIETFVPGSQPGEFTLGTIKSYPGETPILVRVVSTNYNQHAMVFFKGVNQNREIFEIVLYGRTKELTNELKENFIRFSKSLGLPENHIVFPVPIDQLIDGSAWSHPQFEK	0.055
cysteine-free lipocalin mutein SEQ ID NO: 36 (designed binder, biotinylated by NHS chemistry for capture in SPR) QDSTSDLIPAPPLSKVPLQQNFQDNQFQGKWYVVGWAGNTLLREDKDPIKMQAMIYELKEDKSYNVTWVYFADKKRNYHIETFVPGSQPGEFTLGTIKSYPGETPILVRVVSTNYNQHAMVFFKGVNQNREIFEIVLYGRTKELTNELKENFIRFSKSLGLPENHIVFPVPIDQWIDGSAWSHPQFEK	0.046

Now consider a different binder.
For cysteine-free lipocalin mutein SEQ ID NO: 35 (designed binder, biotinylated by NHS chemistry for capture in SPR) QDSTSDLIPAPPLSKVPLQQNFQDNQFQGKWYVVGWAGNTLLREDKDPIKMQAMIYELKEDKSYNVTWVYFADKKVNYHIETFVPGSQPGEFTLGTIKSYPGETPILVRVVSTNYNQHAMVFFKGVNQNREIFEIVLYGRTKELTNELKENFIRFSKSLGLPENHIVFPVPIDQYIDGSAWSHPQFEK the binder record lists Kd as 0.045
